B1: Pistol ribozyme (parent)
chain: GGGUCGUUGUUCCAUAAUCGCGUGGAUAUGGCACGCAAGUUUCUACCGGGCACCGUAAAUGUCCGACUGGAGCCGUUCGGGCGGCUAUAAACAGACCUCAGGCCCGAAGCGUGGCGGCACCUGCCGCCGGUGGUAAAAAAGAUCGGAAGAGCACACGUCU

Variants of: B1
test.protocol: aptazyme ON/OFF ratio, guanine; higher = stronger switching; co-transcriptional cleavage with and without guanine
Would you kindly list aptazyme ON/OFF ratio for each of these variants?
Numbers only.

Provide the reported aptazyme ON/OFF ratio of each entry below, same order.
1. U7A G9U U10G U11G C12U C13G
2. U10G U11G C12U C13G
3. U7A U8C G9C U10C U11C C12G C13G
4. U7G U8G G9U U10G U11C C12U C13G
5. U7C G9C U10G U11C C12U C13A
6. U7C U8C G9C U10C U11G C12U C13G
7. U7A U8C G9C U10G U11C
8. U7C G9C U11G C12U

Result string:
1: 1.15; 2: 1.3; 3: 1.09; 4: 1.19; 5: 1.12; 6: 1.1; 7: 1.1; 8: 1.08

Provide the reported aptazyme ON/OFF ratio of each entry below, same order.
1. U8A G9A U10G U11C C12A
2. U7A U8C G9U U10C U11C C12G
3. U8C U10C C12U
4. U7A U8G G9A U10A U11C
5. U7G U8G G9U C12A C13A
6. U7A U8A U11G C12G C13G
7. U7A G9A U10A U11G C12A

Result string:
1. 1.15
2. 1.07
3. 2.98
4. 1.03
5. 1.17
6. 1.24
7. 1.1

Provide the reported aptazyme ON/OFF ratio of each entry below, same order.
1. U7G U8A G9A U10G U11A
2. G9C U10A C12A C13U
3. U7C U8G G9A U11G C12A C13U
4. U8A G9A U10G C12U C13A

Result string:
1.01
1.23
1.19
1.34
